Molecular target: UniProt:P19821
Sequence (P19821 whole entry): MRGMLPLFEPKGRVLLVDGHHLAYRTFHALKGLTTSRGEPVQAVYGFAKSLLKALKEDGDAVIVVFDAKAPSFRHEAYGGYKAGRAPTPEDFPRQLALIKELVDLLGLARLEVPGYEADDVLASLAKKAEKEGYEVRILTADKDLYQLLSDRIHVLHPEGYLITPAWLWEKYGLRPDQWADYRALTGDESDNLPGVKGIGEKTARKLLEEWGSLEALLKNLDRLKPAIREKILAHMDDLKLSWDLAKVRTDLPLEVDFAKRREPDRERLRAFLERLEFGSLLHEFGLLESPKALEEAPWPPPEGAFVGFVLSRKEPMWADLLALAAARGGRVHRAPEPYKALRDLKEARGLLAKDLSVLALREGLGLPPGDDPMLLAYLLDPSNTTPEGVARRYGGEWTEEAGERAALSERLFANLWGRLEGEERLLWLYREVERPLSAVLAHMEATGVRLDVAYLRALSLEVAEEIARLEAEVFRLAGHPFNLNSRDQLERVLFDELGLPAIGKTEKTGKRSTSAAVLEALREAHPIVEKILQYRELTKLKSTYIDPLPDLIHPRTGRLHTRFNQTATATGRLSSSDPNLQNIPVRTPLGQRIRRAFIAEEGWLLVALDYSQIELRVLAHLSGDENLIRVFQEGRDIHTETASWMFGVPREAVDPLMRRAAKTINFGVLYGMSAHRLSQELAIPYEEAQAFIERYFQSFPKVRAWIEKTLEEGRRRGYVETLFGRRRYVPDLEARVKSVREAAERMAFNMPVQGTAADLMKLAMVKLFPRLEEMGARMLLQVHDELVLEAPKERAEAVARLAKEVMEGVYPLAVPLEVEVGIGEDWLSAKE
Test: Activated calf thymus DNA polymerase activity assay (radioactive incorporation) at 22° C.
Details: titration of inhibitor, calculated from graph (FIG. 7)

{"columns": ["molecule", "IC50"],
 "data": [
  ["CCCCCCCCCCCCC(OC(=O)NCCCS(=O)(=O)[O-])c1ccc(OC)cc1.[Na+] (stereo not shown)", "~150 µM"]
]}

meta.source: patent US12291511B2
